Target or system: T1, Recombinant soluble extracellular domain of human MerTK (human, UniProt Q12866 21-505)
T1 construct: SPR analyte; also called hMerTK
T1 sequence: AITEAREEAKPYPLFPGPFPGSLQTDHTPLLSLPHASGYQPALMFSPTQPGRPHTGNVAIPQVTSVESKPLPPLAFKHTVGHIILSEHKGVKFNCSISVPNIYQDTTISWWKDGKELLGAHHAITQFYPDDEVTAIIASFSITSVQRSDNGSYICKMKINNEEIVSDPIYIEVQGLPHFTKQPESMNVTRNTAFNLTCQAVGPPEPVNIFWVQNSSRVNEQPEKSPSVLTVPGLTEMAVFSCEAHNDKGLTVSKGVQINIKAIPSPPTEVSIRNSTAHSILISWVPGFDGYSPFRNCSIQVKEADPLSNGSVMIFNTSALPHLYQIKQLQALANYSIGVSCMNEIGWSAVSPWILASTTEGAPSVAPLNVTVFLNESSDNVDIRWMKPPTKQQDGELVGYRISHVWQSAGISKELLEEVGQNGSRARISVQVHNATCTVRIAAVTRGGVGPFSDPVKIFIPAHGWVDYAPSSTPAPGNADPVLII
Protocol details: SPR, mAb captured, soluble MerTK ECD as analyte, 37 C

Binder | koff, s⁻¹
HuMAb 8N42 (antibody, V domains shown, Human anti-hMerTK mAb, Bin 1) VH: QVQLQQWGAGLLKPSETLSLTCAVYGGSFSIYYWSWIRQPPGKGLELIGEINDEGNTNYNPSLKSRVTISVDTSKNQFSLKLSSVTAADTAVYYCARGGTGDIHAFDIWGQGTMVTVSS VL: DIQMTQSPSSLSASVGDRVTITCRASQGISKWLAWYQQKPEKAPKSLIYAASSLQSGVPSRFSGSGSGTDFTLTISSLQPEDFATYYCQQYNSYPWTFGQGTKVEIKR | 0.00168
Humanized mAb 4M60 (antibody, human IgG1, kappa, V domains shown, Humanized variant of moMAb 4E9, Bin 2) VH: QVQLVQSGSELKKPGASVKVSCKASGNTFTTYGMSWVRQAPGQGLEWMGWINNYSGVSTYADDFKGRFVFSLDTSVSTAYLQISSLKAEDTAVYYCARDYYGSGGWVFDYWGQGTTVTVSS VL: DVVMTQSPLSLPVTLGQPASISCKSSQSLLDSEGKTYLNWLQQRPGQSPRRLMYLVSKLDSGVPDRFSGSGSGTDFTLKISRVEAEDVGVYYCWQGTHFPRTFGGGTKVEIKR | 0.00134
